# assay-comment: gradient 5% acetonitrile 3 min, to 50% in 2 min, to 85% in 15 min, held 3 min, 100 µL/min
# condition: column: Zorbax Extend-C18 2.1 x 50 mm; eluents: water / acetonitrile, 0.1% formic acid
Below, each of the compounds is paired with its reported RP-LC retention time value.
Report the figure in s without appending any unit label.

| compound | measure-unit | RP-LC retention time |
| --- | --- | --- |
| C=Cc1ccc(CN2C(=O)N(c3ccc(F)cc3)c3ncccc3S2(=O)=O)cc1 | s | 886 |
| CC1(C)CC(=O)c2c(nc(N3CCN(c4ncccn4)CC3)nc2Nc2ccccc2)C1 | s | 1330 |
| Cc1noc(C)c1-c1ccc(S(=O)(=O)NCc2ccc(Cl)cc2)cc1 | s | 969 |
| CN(CCCNC(=O)c1ccc2c(c1)N(C)C(=O)C1CCCCN21)Cc1ccccc1 (centres undefined) | s | 643 |
| CC1=C(c2ccc(Cl)cc2)S(=O)(=O)N=C1N1CCCN(C(=O)c2ccsc2)CC1 | s | 843 |
| Cc1cccn2cc(-c3cccc(S(=O)(=O)N4CCOCC4)c3)nc12 | s | 604 |
| COc1ccc(N2CCN(c3nc(C(=O)N4CCOCC4)cs3)CC2)cc1 | s | 716 |
| CCc1nc2cc(-c3noc(-c4cc(Cl)ccc4OC)n3)ccc2o1 | s | 1220 |

Exercise: Which value of RP-LC retention time has been reported for C[C@H]1CN(C(=O)c2ccc(F)cc2F)C[C@@H]1c1nc(-c2ccccc2)no1 in the records?
Solution: 1040

###

# assay-comment: gradient 5% acetonitrile 3 min, to 50% in 2 min, to 85% in 15 min, held 3 min, 100 µL/min
# condition: column: Zorbax Extend-C18 2.1 x 50 mm; eluents: water / acetonitrile, 0.1% formic acid
RP-LC retention time vs 900 s: at or above is rule met, below is rule not met.

| molecule | label |
| --- | --- |
| CCOC(=O)c1c(S(=O)(=O)N2CCC(C(=O)Nc3ncccc3C)CC2)c(C)n(C)c1C | rule not met |
| Cc1ccc(-c2noc(Cn3c(=O)n(CC(C)C)c(=O)c4ccccc43)n2)cc1 | rule met |
| Cn1ncc2c3ccccc3n(CC(=O)NCc3cccs3)c2c1=O | rule not met |
| CCn1nccc1C(=O)Nc1ccc(-n2cnnn2)cc1 | rule not met |
| CCCCN1C(=O)NC(c2ccccc2)C(c2nc(-c3ccccc3)no2)=C1C (centres undefined) | rule met |

Exercise: Is RP-LC retention time for Cc1ccc(N2CCC(NC(=O)C3CCCC3)C2=O)cc1 (centres undefined) at or above 900 s?
Solution: rule not met

Exercise: Is RP-LC retention time for Cc1ccc(CNC(=O)c2ccc3c(=O)n(-c4ccccc4)c(N4CCCC4)nc3c2)o1 at or above 900 s?
Solution: rule not met

Exercise: Is RP-LC retention time for CCn1c(=O)sc2cc(S(=O)(=O)N3CCC(C(=O)Nc4cc(C)cc(C)c4)CC3)ccc21 at or above 900 s?
Solution: rule met

Exercise: Is RP-LC retention time for COc1ccc(-c2cn3c(CC(=O)Nc4cc(C)ccc4C)csc3n2)cc1OC at or above 900 s?
Solution: rule not met

Exercise: Is RP-LC retention time for CCCn1c(-c2cccc(C(=O)NCCC3=CCCCC3)c2)nc2cccnc21 at or above 900 s?
Solution: rule met

Exercise: Is RP-LC retention time for Cn1c(N2CCC(C(=O)N3CCN(c4ccccn4)CC3)CC2)cc(=O)n(C)c1=O at or above 900 s?
Solution: rule not met

Exercise: Is RP-LC retention time for CCOc1cc(=O)n2c(c1C(=O)Nc1cc(OC)cc(OC)c1)CCCC2 at or above 900 s?
Solution: rule not met

Exercise: Is RP-LC retention time for CCN1CCCC1CNC(=O)Cn1ncn2nc(-c3ccccc3)cc2c1=O (centres undefined) at or above 900 s?
Solution: rule not met

Exercise: Is RP-LC retention time for CCOC(=O)CCNC(=O)N1CCN(Cc2nc3cccnc3n2-c2ccc(F)cc2)CC1 at or above 900 s?
Solution: rule not met

Exercise: Is RP-LC retention time for CC1=C(c2ccc(C)c(C)c2)S(=O)(=O)N=C1N1CCC(C(=O)NCCN2CCCC2)CC1 at or above 900 s?
Solution: rule not met

Exercise: Is RP-LC retention time for Cc1cc(C)cc(C(=O)N2CCCC(C(=O)NC3CCCC3)C2)c1 (centres undefined) at or above 900 s?
Solution: rule not met

Exercise: Is RP-LC retention time for CC(C)(C)OC(=O)N1CCN(c2ncc(C(=O)Nc3ccccc3)c(N)n2)CC1 at or above 900 s?
Solution: rule not met

Exercise: Is RP-LC retention time for O=S(=O)(Cc1ccccc1F)N1CCCCC1c1nc(-c2ccccc2)n[nH]1 (centres undefined) at or above 900 s?
Solution: rule met

Exercise: Is RP-LC retention time for O=C(Nc1ccc(Br)cc1)NC1CCN(c2ccccc2)C1=O (centres undefined) at or above 900 s?
Solution: rule not met

Exercise: Is RP-LC retention time for O=C(NC1c2ccccc2-c2ccccc21)c1cccc([N+](=O)[O-])c1 at or above 900 s?
Solution: rule met

Exercise: Is RP-LC retention time for OCCNCc1ccc(-c2cccc(Cl)c2)o1 at or above 900 s?
Solution: rule met

Exercise: Is RP-LC retention time for O=C(Nc1ccc(Br)cc1)C1CCCN(c2ncc(-c3cccc(F)c3)cn2)C1 (centres undefined) at or above 900 s?
Solution: rule met

Exercise: Is RP-LC retention time for CC1CCC(NC(=O)CCn2nc(C(=O)N3c4ccccc4CC3C)ccc2=O)CC1 (centres undefined) at or above 900 s?
Solution: rule not met

Exercise: Is RP-LC retention time for Cc1ccc(NC(=O)CN2CCc3ccccc3C2C(=O)N2CCCCC2)cc1Cl (centres undefined) at or above 900 s?
Solution: rule met
